Values were extracted from PubChem BioAssay (Tox21).

# protocol.notes: qHTS assay to identify small molecule antagonists of the sonic hedgehog signaling (Shh) pathway (AID 1259369); note: nearly all actives have a fitted effect of over 45% in size
# settings: NIH/3T3 Gli1-Luc reporter, Shh antagonist, luminescence 24 h; series mostly up to 92.4 µM
Inconclusive results are not listed. Active and inactive are the calls of the source. Calls come from the whole dose curve.
Classes used: active, inactive

compound=Clc1ccc2nsnc2c1NC1=NCCN1 discrete_label=inactive
compound=c1ccc(CSCc2ccccc2)cc1 discrete_label=inactive
compound=CC(=O)SC[C@@H](Cc1ccccc1)C(=O)NCC(=O)OCc1ccccc1 discrete_label=inactive
compound=CCCCCOc1ccccc1/C(=C\SC)n1ccnc1 discrete_label=inactive
compound="CCN(CC)CCCC(C)Nc1c2ccc(Cl)cc2nc2ccc(OC)cc12 (configuration not stated)" discrete_label=active
compound=CCc1cc(Cc2cc(CC)cc(C(C)(C)C)c2O)c(O)c(C(C)(C)C)c1 discrete_label=active
compound=CCCCCCC[N+](CC)(CC)CCCCc1ccc(Cl)cc1 discrete_label=active
compound=[O-][n+]1ccccc1SSc1cccc[n+]1[O-] discrete_label=active
compound=CN(C/C=C/C#CC(C)(C)C)Cc1cccc2ccccc12 discrete_label=inactive
compound=CC[C@H]1O[C@]2(CC[C@@H]1C)C[C@@H]1C[C@@H](C/C=C(\C)C[C@@H](C)/C=C/C=C3\CO[C@@H]4[C@H](O)C(C)=C[C@@H](C(=O)O1)[C@]34O)O2 discrete_label=inactive
compound=O=C(Nc1ccc(Oc2ccc(Cl)cc2)c(Cl)c1)c1cc(I)cc(I)c1O discrete_label=active
compound=C/C=C(\C)C(=O)OCc1ccccc1 discrete_label=inactive
compound=Cc1onc(-c2c(Cl)cccc2Cl)c1C(=O)N[C@@H]1C(=O)N2[C@@H]1SC(C)(C)[C@@H]2C(=O)O discrete_label=inactive
compound=C=CC(=O)OCC(CO)(COCC(COC(=O)C=C)(COC(=O)C=C)COC(=O)C=C)COC(=O)C=C discrete_label=active
compound=O=C(OCC(COC(=O)c1ccccc1)(COC(=O)c1ccccc1)COC(=O)c1ccccc1)c1ccccc1 discrete_label=inactive
compound="Cc1cccc(N(C)C(=S)Oc2ccc3c(c2)C2CCC3C2)c1 (configuration not stated)" discrete_label=inactive
compound=O=C(N/N=C/c1ccccc1O)c1ccncc1 discrete_label=active
compound=CCCC(c1cc(C(C)(C)C)c(O)cc1C)c1cc(C(C)(C)C)c(O)cc1C discrete_label=active
compound=CCCCN1CCCC[C@H]1C(=O)Nc1c(C)cccc1C discrete_label=inactive
compound=CCCC/C=C/CCCCO discrete_label=inactive
compound=O=S1(=O)CC(Cl)(Cl)C(Cl)(Cl)C1 discrete_label=active
compound=Cc1cc(N)c(S(=O)(=O)O)cc1Cl discrete_label=inactive
compound=CC[C@H](c1ccc(O)cc1)[C@@H](CC)c1ccc(O)cc1 discrete_label=active
compound=CC(C)(C)c1ccc(C(=O)CCCN2CCC(OC(c3ccccc3)c3ccccc3)CC2)cc1 discrete_label=active
compound=COC(=O)c1cc(Cl)ccc1OC discrete_label=inactive
compound="Cc1c(C)c2c(c(C)c1O)CCC(C)(COc1ccc(CC3SC(=O)NC3=O)cc1)O2 (configuration not stated)" discrete_label=active
compound="CCCCCCCCS(=O)C(C)Cc1ccc2c(c1)OCO2 (configuration not stated)" discrete_label=active
compound=CSc1ccc(/C=C2/C(C)=C(CC(=O)O)c3cc(F)ccc32)cc1 discrete_label=inactive
compound=CCCCCCCCCCCC(=O)NCCCN(C)C discrete_label=active
compound=O=C(Nc1cccc(Cl)c1)OCC#CCCl discrete_label=active
compound=CSc1ccc(C(=O)c2[nH]c(=O)[nH]c2C)cc1 discrete_label=inactive
compound=CCc1cc(Cc2cc(CC)c(N)c(CC)c2)cc(CC)c1N discrete_label=active
compound=On1ccccc1=S discrete_label=active
compound=COc1cc(-c2ccc(N=C=O)c(OC)c2)ccc1N=C=O discrete_label=inactive
compound=O=Cc1cc(O)ccc1Br discrete_label=inactive
compound=CC[C@@]1(O)C(=O)OCc2c1cc1n(c2=O)Cc2cc3c(CN(C)C)c(O)ccc3nc2-1 discrete_label=active
compound=Oc1ccc(N=Nc2ccccc2)cc1 discrete_label=active
